Measured Activity values are reported for all entries that follow.
# Test system: Mus musculus
# Experiment Summary: Antidepressant activity in ICR mouse assessed as reduction in immobility time of forced swimming at 10 mg/kg, po administered once daily for 5 days by forced swimming test relative to control
# Format: functional
# Design: scale not given: the % may be the effect or the level left
Write it as a number; the unit % goes unstated.

The cases that follow already have their Activity on record.
>  <Compound>
C[C@@H]1O[C@@H](O[C@H]2[C@H](OC(=O)[C@]34CCC(C)(C)C[C@H]3C3=CC[C@@H]5[C@@]6(C)C[C@H](O)[C@H](O)[C@@](C)(C(=O)O)[C@@H]6CC[C@@]5(C)[C@]3(C)CC4)O[C@H](CO)[C@@H](O)[C@@H]2O)[C@H](O)[C@H](O[C@H]2OC[C@@](O)(CO)[C@@H]2O)[C@H]1O[C@@H]1OC[C@@H](O)[C@H](O)[C@H]1O

>  <Measured Target>
Mus musculus

>  <Activity [%]>
45.8

$$$$
>  <Compound>
C[C@@H]1O[C@@H](O[C@H]2[C@H](OC(=O)[C@]34CCC(C)(C)C[C@H]3C3=CC[C@@H]5[C@@]6(C)C[C@H](O)[C@H](O[C@@H]7O[C@H](CO)[C@@H](O)[C@H](O)[C@H]7O)[C@](C)(CO)[C@@H]6CC[C@@]5(C)[C@]3(C)CC4)O[C@H](CO)[C@@H](O[C@@H]3OC[C@@H](O)[C@H](O)[C@H]3O)[C@@H]2O[C@@H]2OC[C@](O)(CO)[C@H]2O)[C@H](O)[C@H](O)[C@H]1O

>  <Measured Target>
Mus musculus

>  <Activity [%]>
16.8

$$$$

GET /value?item= `C[C@@H]1O[C@@H](O[C@H]2[C@H](OC(=O)[C@]34CCC(C)(C)C[C@H]3C3=CC[C@@H]5[C@@]6(C)C[C@H](O)[C@H](O)[C@@](C)(C(=O)O)[C@@H]6CC[C@@]5(C)[C@]3(C)CC4)O[C@H](CO)[C@@H](O)[C@@H]2O)[C@H](O)[C@H](O)[C@H]1O[C@@H]1OC[C@@H](O)[C@H](O)[C@H]1O` &field=Activity returns 35.4

Note to self: Activity recorded for CNCCC(Oc1ccc(C(F)(F)F)cc1)c1ccccc1 (centres undefined) was 50.7
